- study.target: KRas^G12R (Homo sapiens, UniProt P01116, G12R)
- Construct: […]; biotin (biotinylated)
- Sequence (P01116 1-169 isoform P01116-2 G12R): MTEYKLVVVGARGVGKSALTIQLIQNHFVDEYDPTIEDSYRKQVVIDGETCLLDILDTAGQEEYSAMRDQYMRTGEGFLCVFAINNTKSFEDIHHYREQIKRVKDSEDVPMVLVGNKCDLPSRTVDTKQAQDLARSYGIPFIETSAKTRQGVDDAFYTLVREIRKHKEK
- assay.explanation: KRas binding assay (TR-FRET displacement of Cy5 labelled tracer)
// IC50 lookup, one value per entry
Report as a plain number; the unit nM is understood.

# example entries with known answers
{"compound": "CCc1cccc2cccc(N3CCc4c(nc(OCC56CCCN5CCC6)nc4NCc4ccc5nncn5c4)C3)c12", "unit.abbrev": "nM", "IC50": 239}
{"compound": "CCc1cccc2cccc(N3CCc4c(nc(OCC56CCCN5CCC6)nc4N4CCCC(n5cccn5)C4)C3)c12 (stereo not drawn)", "unit.abbrev": "nM", "IC50": 291}
{"compound": "CCc1cccc2cccc(N3CCc4c(nc(OCC56CCCN5CCC6)nc4N4CC(O)C(O)C(O)C4)C3)c12 (stereo not drawn)", "unit.abbrev": "nM", "IC50": 400}

q: Entry under review: CCc1cccc2cccc(N3CCc4c(nc(OCC56CCCN5CCC6)nc4N4CCCC(n5nccn5)C4)C3)c12 (stereo not drawn) . Reported IC50?
a: 775

q: Moving on to "CCc1c(F)ccc2cc(O)cc(N3CCc4c(nc(OC[C@@]56CCCN5C[C@H](F)C6)nc4NCc4c[nH]c5ncccc45)C3)c12"
a: 4

q: Similarly, CCc1cccc2cccc(N3CCc4c(nc(OCC56CCCN5CCC6)nc4N4CC(C)CC(C(N)=O)C4)C3)c12 (stereo not drawn) ?
a: 461

q: Same lookup for Oc1cc(N2CCc3c(nc(OC[C@@]45CCCN4C[C@H](F)C5)nc3N3CC4CC(O)C(C4)C3)C2)c2c(Br)c(F)ccc2c1 (stereo partly drawn) , please.
a: 3

q: Repeat for the following compound: CCc1cccc2cccc(N3CCc4c(nc(OCC56CCCN5CCC6)nc4NC4CC(=O)N(c5cnn(C)c5)C4)C3)c12 (stereo not drawn)
a: 3290

q: Also need "CCc1c(F)ccc2cc(O)cc(N3CCc4c(nc(OCC5(CN(C)C)CC5)nc4N4CCCn5nc(C(=O)N(C)C)cc5C4)C3)c12" , thanks.
a: 3

q: Next entry: CN1CCC[C@H]1COc1nc2c(c(N3CCCC4(C3)NC(=O)NC4=O)n1)CCN(c1cccc3cccc(Cl)c13)C2 (stereo partly drawn)
a: 34

q: Record: Oc1cc(N2CCc3c(nc(OC[C@@]45CCCN4C[C@H](F)C5)nc3N3CC4CC(O)CC3C4)C2)c2c(Br)c(F)ccc2c1 (single isomer, unassigned) [Example 213]
a: 3

q: Now the same for "CCc1cccc2cccc(N3CCc4c(nc(OCC56CCCN5CCC6)nc4N4C[C@@H](C)C[C@@H](O)C4)C3)c12"
a: 546

All figures here come from patent US12421253B2.
